Data provenance is patent US20020142016A1.

System: retinoic acid oxidation (cytochrome P450 systems)
Test: Assay for NADPH dependent retinoic acid oxidation in rat liver microsomes
Type: biochemical
Conditions: Sprague Dawley, pH 7.4, probe retinoic acid, 10 μM
parameter measured: inhibition at 60 min, 100 µM (%)

> print(dat)
                                   molecule  test.result
1  O=c1c(O)c(-c2ccc(O)c(O)c2)oc2cc(O)cc(O)c12 [Quercetin]           74
2  Clc1ccc(COC(Cn2ccnc2)c2ccc(Cl)cc2Cl)cc1 (stereo not shown) [Econazole]          100
3  CC(C)(C)C(=O)C(Oc1ccc(Cl)cc1)n1ccnc1 (stereo not shown) [Climbazole]           92
4  Clc1ccc(COC(Cn2ccnc2)c2ccc(Cl)cc2Cl)c(Cl)c1 (stereo not shown) [Miconazole]           86
5  c1ccc(-c2ccc(C(c3ccccc3)n3ccnc3)cc2)cc1 (stereo not shown) [Bifonazole]          100

P = CC(=O)N1CCN(c2ccc(OCC3COC(Cn4ccnc4)(c4ccc(Cl)cc4Cl)O3)cc2)CC1 (stereo not shown) [Ketoconazole]
Q = CC(C)(C(=O)c1cccnc1)c1cccnc1
Between P and Q , which one shows the smaller inhibition at 60 min, 100 µM number? Lab note: record the label of whichever item you select.
Q

---

Assay: Retinol stability in the presence of boosters (OD 360 nm)
Type: physicochemical
Settings: booster approximately 0.1%, retinol in approx. 50% aqueous ethanol, 60 hours at room temperature in the dark
parameter measured: FOLD INCREASE IN RATE OF RETINOL LOSS

> print(dat)
                                   compound  test.result
1  CC(=O)/C=C/C1C(C)=CCCC1(C)C (stereo not shown)          1.3

I = O=c1ccc2ccccc2o1
II = CC(C)=CCCC(C)=CC=O
Hi team, can someone confirm which has the larger FOLD INCREASE IN RATE OF RETINOL LOSS: I or II ? Thanks. Lab note: record the label of whichever item you select.
II
(II: 3.1, I: 1.4)

I = CN1CCN(C)C1=O
II = CCCCCCCCCCCC(=O)N(C)CC(=O)O
Between I and II , which one shows the smaller FOLD INCREASE IN RATE OF RETINOL LOSS number? Lab note: record the label of whichever item you select.
I
(I: 1.4, II: 2.6)

---

System: retinoic acid oxidation (cytochrome P450 systems)
Test: Assay for NADPH dependent retinoic acid oxidation in rat liver microsomes
Assay type: biochemical
Details: Sprague Dawley, pH 7.4, probe retinoic acid
parameter measured: inhibition at 60 min, 10 µM (%)

Recorded inhibition at 60 min, 10 µM, per entry:
> print(dat)
                                   molecule           parameter.measured  units.text  test.result
1  CC(C)(C)C(=O)C(Oc1ccc(Cl)cc1)n1ccnc1 (stereo not shown) [Climbazole]  inhibition at 60 min, 10 µM           %           80
2  Clc1ccccc1C(c1ccccc1)(c1ccccc1)n1ccnc1 [Clotrimazole]  inhibition at 60 min, 10 µM           %           76
3  Clc1ccc(COC(Cn2ccnc2)c2ccc(Cl)cc2Cl)cc1 (stereo not shown) [Econazole]  inhibition at 60 min, 10 µM           %           88
4  CC(=O)N1CCN(c2ccc(OCC3COC(Cn4ccnc4)(c4ccc(Cl)cc4Cl)O3)cc2)CC1 (stereo not shown) [Ketoconazole]  inhibition at 60 min, 10 µM           %           84
5  c1ccc(-c2ccc(C(c3ccccc3)n3ccnc3)cc2)cc1 (stereo not shown) [Bifonazole]  inhibition at 60 min, 10 µM           %           89

P = Clc1ccc(COC(Cn2ccnc2)c2ccc(Cl)cc2Cl)c(Cl)c1 (stereo not shown) [Miconazole]
Q = O=c1c(O)c(-c2ccc(O)c(O)c2)oc2cc(O)cc(O)c12 [Quercetin]
Between P and Q , which one shows the smaller inhibition at 60 min, 10 µM number? Lab note: record the label of whichever item you select.
Q
(Q: 40%, P: 74%)

---

Molecular target: LRAT (Bos taurus)
Construct: followed by approximately 15 pg of RPE microsomal protein; tissue W. L. Lawson Co., Lincoln, Nebr; host or cells: bovine retinal pigment epithelium microsomes
Sequence (Q9BGL2 1-230): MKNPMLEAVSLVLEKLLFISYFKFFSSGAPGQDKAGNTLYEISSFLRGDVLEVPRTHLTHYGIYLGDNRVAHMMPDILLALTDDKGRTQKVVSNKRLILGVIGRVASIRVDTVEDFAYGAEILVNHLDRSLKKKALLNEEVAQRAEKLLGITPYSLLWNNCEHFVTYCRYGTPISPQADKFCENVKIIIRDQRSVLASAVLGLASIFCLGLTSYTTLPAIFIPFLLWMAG
Assay: Assay for LRAT activity in RPE microsomes
Format: biochemical, bovine
Conditions: 100 μm compound
parameter measured: inhibition at 100 µM (%)
// note: answer is a bare numeric in %

> print(dat)
                                   compound    parameter.measured  units.text  test.result
1  CC(/C=C/C=C(\C)C(=O)O)=C\C=C\C=C(C)\C=C\C=C(/C)C(=O)O [Crocetin]  inhibition at 100 µM           %           15
2  CC(=O)c1cc2c(cc1C)C(C)(C)C(C)CC2(C)C (stereo not drawn) [Tonalid]  inhibition at 100 µM           %           33

// next item, inhibition at 100 µM requested
May I ask what inhibition at 100 µM has been recorded for CCN(CC)CC(=O)Nc1c(C)cccc1C [Lidocaine, reference compound] ?
0

---

Experiment: Retinol stability in the presence of boosters (OD 360 nm)
Type: physicochemical
Conditions: booster approximately 0.1%, retinol in approx. 50% aqueous ethanol, 60 hours at room temperature in the dark
parameter measured: FOLD INCREASE IN RATE OF RETINOL LOSS

> print(dat)
                             smiles.data                     parameter.measured  test.result
1                    CC(C)=CCC/C(C)=C/CO  FOLD INCREASE IN RATE OF RETINOL LOSS          1.3
2  CCCCC/C=C\C/C=C\CCCCCCCC(=O)N(CCO)CCO  FOLD INCREASE IN RATE OF RETINOL LOSS          3.0
3                        Oc1cccc2cccnc12  FOLD INCREASE IN RATE OF RETINOL LOSS          1.5

P = CCCCC/C=C\C/C=C\CCCCCCCC(=O)O
Q = CC1(C)[C@@H](O)CC[C@]2(C)[C@H]3C(=O)C=C4[C@@H]5C[C@@](C)(C(=O)O)CC[C@]5(C)CC[C@@]4(C)[C@]3(C)CC[C@@H]12
Between P and Q , which one shows the smaller FOLD INCREASE IN RATE OF RETINOL LOSS number? Lab note: record the label of whichever item you select.
Q
